Assayed System: T1, hIL-11R (Homo sapiens, UniProt Q14626)
T1 sequence (Q14626 23-422): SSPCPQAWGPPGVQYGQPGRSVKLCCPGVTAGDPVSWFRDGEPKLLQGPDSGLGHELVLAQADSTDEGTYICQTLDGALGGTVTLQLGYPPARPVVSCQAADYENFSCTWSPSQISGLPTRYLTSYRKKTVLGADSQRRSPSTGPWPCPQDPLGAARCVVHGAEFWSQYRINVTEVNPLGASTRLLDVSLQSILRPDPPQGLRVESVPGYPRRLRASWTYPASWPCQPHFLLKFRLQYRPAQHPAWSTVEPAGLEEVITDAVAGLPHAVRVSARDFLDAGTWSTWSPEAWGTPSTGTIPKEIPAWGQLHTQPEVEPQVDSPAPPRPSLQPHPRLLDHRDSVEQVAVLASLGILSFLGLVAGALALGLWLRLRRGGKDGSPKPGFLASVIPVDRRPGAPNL
Protocol Text: Alternate biolayer interferometry assay (AHC biosensors) ranking mAbs 16-32 against mAb5
Assay type: binding
Run Conditions: AHC biosensors
Listing of entries alongside the reported ka.
Use M⁻¹ s⁻¹ as the unit, but write only the number.

>  <Molecule>
mAb29: anti-IL-11Rα antibody, human IgG4 (S228P), kappa; VH SEQ ID NO: 249, VL SEQ ID NO: 250 (antibody, V domains shown, IgG4 S228P kappa constant regions; mAb29 VH Chain; mAb29 VL Chain) VH: EVQLLESGGGLVQPGGSLRLSCAASGFTFSSYSMTWVRQAPGKGLEWVSSIVPYGDLTQYADSVKGRFTISRDNSKNTLYLQMNSLRAEDTAVYYCAKGPGWGSFDLWGRGTLVTVSS VL: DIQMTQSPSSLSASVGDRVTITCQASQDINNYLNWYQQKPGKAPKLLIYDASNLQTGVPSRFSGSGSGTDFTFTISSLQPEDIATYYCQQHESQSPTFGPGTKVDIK

>  <Unit Of Measurement>
M⁻¹ s⁻¹

>  <Value Measured>
610000

$$$$

Could you share which ka value was measured for mAb23: anti-IL-11Rα antibody, human IgG4 (S228P), kappa; VH SEQ ID NO: 237, VL SEQ ID NO: 238 (antibody, V domains shown, IgG4 S228P kappa constant regions; mAb23 VH Chain; mAb23 VL Chain) VH: EVQLLESGGGLVQPGGSLRLSCAASGFTFSKYSMTWVRQAPGKGLEWVSSIVPYGDLTQYADSVKGRFTISRDNSKNTLYLQMNSLRAEDTAVYYCAKGPGWGSFDLWGRGTLVTVSS VL: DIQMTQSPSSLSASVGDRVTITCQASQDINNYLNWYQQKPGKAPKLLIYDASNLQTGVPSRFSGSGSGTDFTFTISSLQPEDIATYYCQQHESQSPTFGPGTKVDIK ?
720000
